The values you see were collected from paper doi:10.1101/2025.05.09.652710v1.

Assignment: determine reported H1N1 Fold inhibition @ 0.1 μM for the given compounds.
Would you mind answering with just the numeric figure?

Task: Please tell me: H1N1 Fold inhibition @ 0.1 μM of CC[C@H](C)[C@H](NC(C)=O)C(=O)N[C@@H](CCC(N)=O)C(=O)N[C@H](C(=O)N[C@@H](CCCNC(=N)N)C(=O)c1nc2ccccc2s1)C(C)C [MM3180, Ac-IQVR-kbt] , system influenza A virus strain A/California/4/2009 (pdmH1N1)?
Result: 2

Task: Please tell me: H1N1 Fold inhibition @ 0.1 μM of N=C(N)NCCC[C@H](NC(=O)[C@H](Cc1ccccc1)NC(=O)[C@H](CCC(N)=O)NC(=O)OCc1ccccc1)C(=O)c1nc2ccccc2s1 [ZFH9141, Cbz-QFR-kbt] , system influenza A virus strain A/California/4/2009 (pdmH1N1)?
Result: 483

Task: Please tell me: H1N1 Fold inhibition @ 0.1 μM of N=C(N)NCCC[C@H](NC(=O)[C@H](Cc1ccccc1)NC(=O)[C@H](CCC(N)=O)NS(=O)(=O)c1ccccc1)C(=O)c1nc2ccccc2s1 [MF1101, PhSO2-QFR-kbt] , system influenza A virus strain A/California/4/2009 (pdmH1N1)?
Result: 4

Task: Please tell me: H1N1 Fold inhibition @ 0.1 μM of N=C(N)NCCC[C@H](NC(=O)[C@H](Cc1ccccc1)NC(=O)[C@H](CCC(N)=O)NC(=O)c1ccccc1)C(=O)c1nc2ccccc2s1 [CA1043, Bz-QFR-kbt] , system influenza A virus strain A/California/4/2009 (pdmH1N1)?
Result: 5

Task: Please tell me: H1N1 Fold inhibition @ 0.1 μM of CSCC[C@H](NC(C)=O)C(=O)N[C@@H](CCC(N)=O)C(=O)N[C@@H](Cc1ccccc1)C(=O)N[C@@H](CCCNC(=N)N)C(=O)c1nc2ccccc2s1 [MM3130, Ac-MQFR-kbt] , system influenza A virus strain A/California/4/2009 (pdmH1N1)?
Result: 1

Task: Please tell me: H1N1 Fold inhibition @ 0.1 μM of CC[C@H](C)[C@H](NC(C)=O)C(=O)N[C@@H](CO)C(=O)N[C@@H](Cc1ccccc1)C(=O)N[C@@H](CCCNC(=N)N)C(=O)c1nc2ccccc2s1 [MM4009, Ac-ISFR-kbt] , system influenza A virus strain A/California/4/2009 (pdmH1N1)?
Result: 2

Task: Please tell me: H1N1 Fold inhibition @ 0.1 μM of CC(=O)NCC(=O)N[C@@H](CCC(N)=O)C(=O)N[C@@H](Cc1ccccc1)C(=O)N[C@@H](CCCNC(=N)N)C(=O)c1nc2ccccc2s1 [MM3122, Ac-GQFR-kbt] , system influenza A virus strain A/California/4/2009 (pdmH1N1)?
Result: 27.5

Task: Please tell me: H1N1 Fold inhibition @ 0.1 μM of CC[C@H](C)[C@H](NC(C)=O)C(=O)N[C@@H](CCC(N)=O)C(=O)N[C@@H](C)C(=O)N[C@@H](CCCNC(=N)N)C(=O)c1nc2ccccc2s1 [MM3178, Ac-IQAR-kbt] , system influenza A virus strain A/California/4/2009 (pdmH1N1)?
Result: 2

Task: Please tell me: H1N1 Fold inhibition @ 0.1 μM of CC(=O)N1CCC[C@H]1C(=O)N[C@@H](CO)C(=O)N[C@@H](CCCCN)C(=O)N[C@@H](CCCNC(=N)N)C(=O)c1nc2ccccc2s1 [MM3194, Ac-PSKR-kbt] , system influenza A virus strain A/California/4/2009 (pdmH1N1)?
Result: 1

Task: Please tell me: H1N1 Fold inhibition @ 0.1 μM of N=C(N)NCCC[C@H](NC(=O)[C@H](Cc1ccccc1)NC(=O)[C@H](CCC(N)=O)NS(=O)(=O)C1CC1)C(=O)c1nc2ccccc2s1 [MF1104, CypSO2-QFR-kbt] , system influenza A virus strain A/California/4/2009 (pdmH1N1)?
Result: 1

---

Assignment: determine reported IC50 for the given molecules.
Form entry: value (nM) — number only.

Task: Please tell me: IC50 of CC[C@H](C)[C@H](NC(C)=O)C(=O)N[C@@H](CCC(N)=O)C(=O)N[C@@H](C)C(=O)N[C@@H](CCCNC(=N)N)C(=O)c1nc2ccccc2s1 , system UniProt:Q9Y5Y6?
Result: 0.1

Task: Please tell me: IC50 of CC[C@H](C)[C@H](NC(C)=O)C(=O)N[C@@H](CCC(N)=O)C(=O)N[C@H](C(=O)N[C@@H](CCCNC(=N)N)C(=O)c1nc2ccccc2s1)[C@@H](C)O , system UniProt:Q9Y5Y6?
Result: 16

Task: Please tell me: IC50 of CC[C@H](C)[C@H](NC(C)=O)C(=O)N[C@H](Cc1c[nH]c2ccccc12)C(=O)N[C@@H](Cc1ccccc1)C(=O)N[C@@H](CCCNC(=N)N)C(=O)c1nc2ccccc2s1 , system UniProt:Q9Y5Y6?
Result: 25

Task: Please tell me: IC50 of CC[C@H](C)[C@H](NC(C)=O)C(=O)N[C@@H](CCC(N)=O)C(=O)N[C@@H](Cc1c[nH]c2ccccc12)C(=O)N[C@@H](CCCNC(=N)N)C(=O)c1nc2ccccc2s1 , system UniProt:Q9Y5Y6?
Result: 1.2

Task: Please tell me: IC50 of CC[C@H](C)[C@H](NC(C)=O)C(=O)N[C@@H](CCC(N)=O)C(=O)N[C@H](C(=O)N[C@@H](CCCNC(=N)N)C(=O)c1nc2ccccc2s1)C(C)C , system UniProt:Q9Y5Y6?
Result: 0.76

Task: Please tell me: IC50 of CC[C@H](C)[C@H](NC(C)=O)C(=O)N[C@@H](CCSC)C(=O)N[C@@H](Cc1ccccc1)C(=O)N[C@@H](CCCNC(=N)N)C(=O)c1nc2ccccc2s1 , system UniProt:Q9Y5Y6?
Result: 0.51

Task: Please tell me: IC50 of CC[C@H](C)[C@H](NC(C)=O)C(=O)N[C@@H](CCC(N)=O)C(=O)N[C@@H](Cc1ccccc1)C(=O)N[C@@H](CCCNC(=N)N)C(=O)c1nc2ccccc2s1 , system UniProt:Q9Y5Y6?
Result: 0.92

Task: Please tell me: IC50 of CC[C@H](C)[C@H](NC(C)=O)C(=O)N[C@@H](CO)C(=O)N[C@@H](Cc1ccccc1)C(=O)N[C@@H](CCCNC(=N)N)C(=O)c1nc2ccccc2s1 , system UniProt:Q9Y5Y6?
Result: 4.7

Task: Please tell me: IC50 of CC[C@H](C)[C@H](NC(C)=O)C(=O)N[C@@H](CCC(N)=O)C(=O)N[C@H](C(=O)N[C@H](CCCNC(=N)N)C(=O)c1nc2ccccc2s1)C(C)C , system UniProt:Q9Y5Y6?
Result: 22.9

Task: Please tell me: IC50 of CC[C@H](C)[C@H](NC(C)=O)C(=O)N[C@@H](CCC(=O)O)C(=O)N[C@@H](Cc1ccccc1)C(=O)N[C@@H](CCCNC(=N)N)C(=O)c1nc2ccccc2s1 , system UniProt:Q9Y5Y6?
Result: 2.4

---

Target: TMPRSS2 (Homo sapiens, UniProt O15393, Q253D/R252D/R255K/S251D/S254D)
Sequence (O15393 109-492 S251D/R252D/Q253D/S254D/R255K limits assumed): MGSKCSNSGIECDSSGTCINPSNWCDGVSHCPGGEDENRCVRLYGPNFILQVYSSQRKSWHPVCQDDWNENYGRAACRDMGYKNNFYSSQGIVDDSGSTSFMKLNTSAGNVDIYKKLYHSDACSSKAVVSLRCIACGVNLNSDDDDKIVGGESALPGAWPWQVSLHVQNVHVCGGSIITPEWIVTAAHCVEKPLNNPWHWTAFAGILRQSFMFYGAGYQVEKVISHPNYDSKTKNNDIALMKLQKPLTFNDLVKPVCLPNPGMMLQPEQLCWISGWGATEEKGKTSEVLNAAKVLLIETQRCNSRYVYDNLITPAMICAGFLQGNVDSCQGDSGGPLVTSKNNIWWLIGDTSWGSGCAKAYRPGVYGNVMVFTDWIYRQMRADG
Test: Fluorogenic kinetic enzyme inhibitor assay, TMPRSS2
metric: IC50 (nM)
Form entry: value (nM) — number only.

Task: Any idea what IC50 was measured for N=C(N)NCCC[C@H](NC(=O)[C@H](Cc1ccccc1)NC(=O)[C@H](CCC(N)=O)NC(=O)Cc1ccccc1)C(=O)c1nc2ccccc2s1 ?
Result: 0.41

Task: Any idea what IC50 was measured for N=C(N)NCCC[C@H](NC(=O)[C@H](Cc1ccccc1)NC(=O)[C@H](CCC(N)=O)N1CCCCC1)C(=O)c1nc2ccccc2s1 ?
Result: 8.2

Task: Any idea what IC50 was measured for N=C(N)NCCC[C@H](NC(=O)[C@H](Cc1ccccc1)NC(=O)[C@H](CCC(N)=O)NS(=O)(=O)Cc1ccccc1)C(=O)c1nc2ccccc2s1 ?
Result: 0.07

Task: Any idea what IC50 was measured for CC[C@H](C)[C@H](NC(C)=O)C(=O)N[C@@H](CCSC)C(=O)N[C@@H](Cc1ccccc1)C(=O)N[C@H](CCCNC(=N)N)C(=O)c1nc2ccccc2s1 ?
Result: 5.63

Task: Any idea what IC50 was measured for N=C(N)NCCC[C@H](NC(=O)[C@H](Cc1ccccc1)NC(=O)[C@H](CCC(N)=O)NS(=O)(=O)c1ccccc1)C(=O)c1nc2ccccc2s1 ?
Result: 1

Task: Any idea what IC50 was measured for CC[C@H](C)[C@H](NC(C)=O)C(=O)N[C@H](C(=O)N[C@@H](Cc1ccccc1)C(=O)N[C@H](CCCNC(=N)N)C(=O)c1nc2ccccc2s1)[C@@H](C)O ?
Result: 1.42

Task: Any idea what IC50 was measured for CC[C@H](C)[C@H](NC(C)=O)C(=O)N[C@@H](CCC(N)=O)C(=O)N[C@@H](C)C(=O)N[C@@H](CCCNC(=N)N)C(=O)c1nc2ccccc2s1 ?
Result: 0.23

Task: Any idea what IC50 was measured for CC[C@H](C)[C@H](NC(C)=O)C(=O)N[C@@H](CCC(N)=O)C(=O)N[C@@H](Cc1ccccc1)C(=O)N[C@@H](CCCNC(=N)N)C(=O)c1nc2ccccc2s1 ?
Result: 1.7

Task: Any idea what IC50 was measured for CC[C@H](C)[C@H](NC(C)=O)C(=O)N[C@@H](CCC(=O)O)C(=O)N[C@@H](Cc1ccccc1)C(=O)N[C@H](CCCNC(=N)N)C(=O)c1nc2ccccc2s1 ?
Result: 0.38

Task: Any idea what IC50 was measured for CC(=O)NCC(=O)N[C@@H](CCC(N)=O)C(=O)N[C@@H](Cc1ccccc1)C(=O)N[C@@H](CCCNC(=N)N)C(=O)c1nc2ccccc2s1 ?
Result: 0.03

Task: Any idea what IC50 was measured for CN(C)[C@@H](CCC(N)=O)C(=O)N[C@@H](Cc1ccccc1)C(=O)N[C@@H](CCCNC(=N)N)C(=O)c1nc2ccccc2s1 ?
Result: 0.86
